The measurements presented in this section are drawn from PubChem BioAssay AID1578.

In this section, each of the molecules is paired with its reported inhibition.
# assay-notes: NOD1 signaling inhibitors, primary screen, cell-based, luminescence, uHTS (AID 1578);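 further: HEK-293T reporter cells stimulated with the NOD1 agonist gamma-tri-DAP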
# assay-setup: NOD1-driven NF-kB luciferase reporter cells, at 4 µM, active compounds read high
The campaign covered roughly 290,000 compounds. About 3,000 (1%) were called active. Shown is part of a subset that was picked to be rich in actives.
# value in %; strip the unit string

Some solved entries appear below for comparison.
COc1ccc(C(=O)C(CN2CCCC2)c2ccccc2)cc1 (configuration not stated); 78.7
CCN(CC)C(=S)SC1CCCCN(C(=O)c2ccc(F)cc2)C1=O (configuration not stated); -8

// next entry
Prompt line: Give the value of inhibition reported for the following: CCN(CC(=O)Nc1ccc(NC(C)=O)cc1)C(=O)/C=C/c1cn(-c2ccccc2)nc1-c1ccc(C)cc1
Response line: 15.8

====

# assay-notes: NOD1 signaling inhibitors, primary screen, cell-based, luminescence, uHTS (AID 1578);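 further: HEK-293T reporter cells stimulated with the NOD1 agonist gamma-tri-DAP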
# assay-setup: NOD1-driven NF-kB luciferase reporter cells, at 4 µM, active compounds read high
Hit rate of the full screen: of about 290,000 compounds, about 3,000 (1%) were called active. The sample as a whole holds a higher share of actives than the screen did.
quantity: inhibition (%)
Write the answer as a number in %, unit excluded.

N#CCC(=O)NNC(=S)Nc1ccccc1C(F)(F)F; 42.8
C=C(C)CN(CC)c1nc(N)c2c(N)nc3c(c2c1C#N)CC(=O)N3C12CC3CC(CC(C3)C1)C2; -11.3
COc1cc(S(=O)(=O)NCc2ccncc2)c(OC)cc1C; -15.2
N#CCc1c(C#N)c(N)nc(N2CCCC(O)C2)c1C#N (configuration not stated); -18.2
OCC1(CCOc2ccccc2)CCN(CC2=Cc3cc(Cl)ccc3OC2)CC1; -37.6
CCOC(=O)c1cnc2ccc(OCC)cc2c1NCCN1CCOCC1; -21.5

Prompt line: Please give the documented inhibition of CC1CCN(CC2C(=O)O[C@@H]3C[C@@]4(C)CCC[C@H](C)C4=C[C@H]23)CC(C)(C)C1 (some centres not stated)
Response line: 15.4

Prompt line: Return the recorded inhibition value; entry: CCOc1ccc(NS(=O)(=O)c2ccc(NC(=O)C3CC3)cc2)cc1
Response line: 23.9

Prompt line: Consider the compound COc1ccccc1S(=O)(=O)Nc1cc(S(=O)(=O)N2CCCCC2)ccc1N1CCOCC1 . State its measured inhibition.
Response line: -35.7

Prompt line: Indicate the recorded inhibition value for this compound: Cc1ccc(NC(=O)Nc2cccc(C)n2)cc1
Response line: -12.5

Prompt line: Give recorded inhibition. CCS(=O)(=O)N1CCN(c2ncnc3sc(C)c(C)c23)CC1
Response line: -20

Prompt line: Tell me measured inhibition for CCC(NC(=O)NNC(=O)c1ccncc1)(C(F)(F)F)C(F)(F)F please.
Response line: -3.5

Prompt line: Give a short answer stating reported inhibition for Cc1ccc(CS(=O)(=O)CCC(=O)NCCN2CCCC2)cc1 .
Response line: -7.3

Prompt line: Specify measured inhibition for CC(C)(CO)N=Cc1c(O)[nH]c2ccccc12 .
Response line: -14.8

====

# assay-notes: NOD1 signaling inhibitors, primary screen, cell-based, luminescence, uHTS (AID 1578);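 further: HEK-293T reporter cells stimulated with the NOD1 agonist gamma-tri-DAP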
# assay-setup: NOD1-driven NF-kB luciferase reporter cells, at 4 µM
In all, about 290,000 compounds went through this assay and about 3,000 (1%) were called active. Cut-off read from the data, not from the text of the source: active = inhibition mostly above about 36% (no sharp cut-off); inactive = mostly below about 34%. The sample holds actives, similar compounds and a random draw of the others, so the mix is not that of the screen.
Permitted responses: yes (active), no (inactive)

Cc1ccccc1C(=O)N1CCC(C(N)=O)CC1; no
Cc1ccc(S(=O)(=O)N2CCCCC2)cc1NC(=O)CSc1ncnc2ccccc12; no
Cc1cc(C)n(CC(=O)NCc2cc(-c3nn(C)c(=O)c4ccccc34)ccc2C)n1; no
O=C(NCc1ccccc1)C1=C[C@@H](C2CC2)C[C@@H](OCCCCO)O1; no

Prompt line: Test call, this compound: Cc1ccc(-c2nn(CC(=O)NCc3cc(-c4nn(C)c(=O)c5ccccc45)ccc3C)c(=O)c3ccccc23)cc1
Response line: yes

Prompt line: Record request — test call for Cc1ccc(NC(=O)CSc2ncnc3ccccc23)cc1S(=O)(=O)N1CCCCCC1
Response line: no

Prompt line: Just curious, what result did Cc1c(/C=N/NC(N)=O)c2ccccn2c1C(=O)c1ccc(F)cc1 get here?
Response line: no

Prompt line: Could you check what this test reported for COC(=O)N/N=C/c1c(C)c(C(=O)c2ccc(F)cc2)n2ccccc12 ?
Response line: no

Prompt line: Can you look up the reported call for CCN(C(=O)Cn1c(=O)oc2ccccc21)C1CCS(=O)(=O)C1 (centres undefined) for me?
Response line: no

Prompt line: Would you mind telling me which call this test gave C=CCn1c(SCc2nc3cc(C(F)(F)F)ccc3c(=O)[nH]2)nc2sc(CC)cc2c1=O ?
Response line: no

Prompt line: Outcome? CCCc1nc2ccc(N)cc2c(=O)n1Cc1ccccc1Cl
Response line: no

Prompt line: Can you look up the reported call for CC(Oc1ccc(Cl)cc1Cl)C(=O)NC(=S)N1CCc2ccccc21 (centres undefined) for me?
Response line: yes

Prompt line: Look up the recorded call for O=C(CNc1ccccc1)N/N=C/c1c(O)ccc2ccccc12 in this test.
Response line: no

Prompt line: Hi, sorry to bother you, what did the test record for O=C(COc1ccc(Cl)cc1Cl)NC(=S)N1CCCc2ccccc21 ?
Response line: no

====

# assay-notes: NOD1 signaling inhibitors, primary screen, cell-based, luminescence, uHTS (AID 1578);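 further: HEK-293T reporter cells stimulated with the NOD1 agonist gamma-tri-DAP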
# assay-setup: NOD1-driven NF-kB luciferase reporter cells, at 4 µM, active compounds read high
Screen size: about 290,000 compounds; about 3,000 (1%) were called active. The list comes from a sample in which actives are over-represented; it also holds close analogues and randomly drawn compounds.
quantity: inhibition (%)
State the answer as a number, implicitly in %.

Cn1c(N)c(C(=O)COC(=O)c2ccc(Cl)c(S(=O)(=O)N3CCCC3)c2)c(=O)n(C)c1=O; 14.5

Prompt line: Entry Cc1ccccc1NC(=O)c1ccc(NS(=O)(=O)c2cc(C(C)(C)C)cc(C)c2C)cc1 needs its inhibition filled in; supply it.
Response line: -29.6

Prompt line: Given the compound CCOC(=O)N1CCN(CC(=O)Nc2ccc(F)c(F)c2)CC1 , write its reported inhibition.
Response line: 10.6

Prompt line: Quote inhibition reported for Clc1ccccc1-c1nn2c(-c3ccncc3)nnc2s1 please.
Response line: 64.5

Prompt line: # return recorded inhibition for entry O=C(N/N=C/c1ccc(OC(=O)c2ccccc2Cl)cc1)c1ccccn1
Response line: -55.2

Prompt line: Return reported inhibition. Input compound: CN=c1scc(-c2ccccc2F)n1/N=C/c1ccc[nH]1
Response line: 101

Prompt line: State its inhibition: CCn1nc(NC(=O)c2cccnc2)c2cc3cccc(C)c3nc21
Response line: -11.6

====

# assay-notes: NOD1 signaling inhibitors, primary screen, cell-based, luminescence, uHTS (AID 1578);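 further: HEK-293T reporter cells stimulated with the NOD1 agonist gamma-tri-DAP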
# assay-setup: NOD1-driven NF-kB luciferase reporter cells, at 4 µM, active compounds read high
The campaign covered roughly 290,000 compounds. About 3,000 (1%) were called active. For the sample, actives were picked, then their nearest neighbours and some compounds at random.
quantity: inhibition (%)
Unit % implied. Number only.

The cases that follow already have their inhibition on record.
Cn1nnnc1SCCNCc1ccccc1OCc1ccccc1Cl; -12.2
COc1cc(OC)c(OC)cc1/C=C1/Cc2ccccc2C1=O; -5
Cn1ccs/c1=N\C(=O)Nc1ccccc1; -7.2
COc1cc(/C=C2\COC/C(=C\c3ccc(O)c(OC)c3)C2=O)ccc1O; 0
O=C(NC1CCCN(Cc2ccc(Cl)cc2)C1)c1c(F)cccc1F (configuration not stated); -4.9
Fc1ccc(Nc2nc(-c3ccncc3)nc3ccccc23)cc1; 1.1
O=C(c1nc2ccc(Cl)cn2c1CN1CCC[C@H]1CO)N1CCCCCCC1; -22
Cc1cnc(C(=O)Nc2ccc(C(=O)N(C)C3CCCCC3)cc2)cn1; -6.2

Prompt line: State its inhibition for this compound: COc1cc(OC)c(OC)cc1/C=C1\CCC(C2CCCC2)C1=O (configuration not stated)
Response line: -28.9

Prompt line: Supply reported inhibition belonging to this compound: Cc1ccc(S(=O)(=O)NCCNC(=O)c2ccccc2)cc1
Response line: -16.6

Prompt line: Check the records and state inhibition for FC(F)(F)c1ccc(C2NCCc3sccc32)cc1 (configuration not stated)
Response line: -38.2

Prompt line: Look up and state reported inhibition for O=C1N2c3ccccc3CCc3cccc(c32)C1(O)C(F)(F)F (configuration not stated)
Response line: -26.6

====

# assay-notes: NOD1 signaling inhibitors, primary screen, cell-based, luminescence, uHTS (AID 1578);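 further: HEK-293T reporter cells stimulated with the NOD1 agonist gamma-tri-DAP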
# assay-setup: NOD1-driven NF-kB luciferase reporter cells, at 4 µM
About 3,000 (1%) of roughly 290,000 compounds were called active. Cut-off read from the data, not from the text of the source: active = inhibition mostly above about 36% (no sharp cut-off); inactive = mostly below about 34%. The list comes from a sample in which actives are over-represented; it also holds close analogues and randomly drawn compounds.
Response enum: class 1 = active, class 0 = inactive

Previously resolved entries follow.
O=C(CSc1nnc(CNC(=O)c2ccc(F)cc2)o1)NCCc1ccccc1; class 0
COc1ccc2c(=O)c(Oc3ccc(C(=O)O)cc3)c(C(F)(F)F)oc2c1; class 1
COc1ccc(/C=N/NC(=O)C2C3CCCCC32)cc1OC (centres undefined); class 0
CCOc1ccc(NC(=O)c2cc(=O)[nH]c3ccccc23)cc1; class 0
COc1cc(/C=N/NC(=O)C2C3CCCCC32C)cc(Br)c1O (centres undefined); class 0

Prompt line: Just curious, what result did COc1ccc(C(=O)NCc2nnc(SCC(=O)N3CCOCC3)o2)cc1 get here?
Response line: class 1

Prompt line: Could you check what this test reported for O=C(CN1CCCCC1)N1c2ccccc2CCc2ccccc21 ?
Response line: class 0

Prompt line: Which outcome was assigned to COc1ccc(/C=N/NC(=O)C2C3CCCCC32C)cc1OC (centres undefined) in this test?
Response line: class 1

Prompt line: Lab log entry: O=C(NC(N1CCOCC1)C(Cl)(Cl)Cl)c1ccc(F)cc1 (centres undefined) — outcome as called in the assay?
Response line: class 0

Prompt line: What call does the record list for C=C(C)CN(CC)C(=O)CC1C(=O)NCCN1CC(C)(C)C (centres undefined) ?
Response line: class 0
